system: A549; assay: NCI tumour cell line growth inhibition, 48 h
Calls of active or inactive are those of the source. Cut-off read from the data, not from the text of the source: active = GI50 up to about 1.1 µM and inactive = higher.
Select the correct class. Options are true (1) for active, false (0) for inactive and nothing else.

Before answering, review these 5 worked examples.
{"Molecule": "COc1cc2c(c(OC)c1OC)-c1ccc(SC)cc1C(=O)CC2", "Target": "A549", "Category Label": "true (1)"}
{"Molecule": "COC(=O)C1=C(C)NC(C)=C(C(=O)OC)C1c1cccc(/[N+]([O-])=C/c2ccccc2)c1", "Target": "A549", "Category Label": "false (0)"}
{"Molecule": "O=c1/c(=C/c2ccccc2[N+](=O)[O-])sc2nc3ccccc3n12", "Target": "A549", "Category Label": "false (0)"}
{"Molecule": "COc1ccc(/C=N/n2cnc3c(c2=O)S/C(=C2/SC(=S)N(c4ccc(C)cc4)C2=O)N3c2ccccc2)cc1", "Target": "A549", "Category Label": "false (0)"}
{"Molecule": "CCOc1ccc(C(=O)/C=C2/Nc3ccccc3N/C2=C/C(=O)c2ccc(OCC)cc2)cc1", "Target": "A549", "Category Label": "false (0)"}

Tell me the assay call for `COc1cccc(-c2nc(-c3cnccn3)n(COCCO)n2)c1` please.
false (0)

Call for entry OC12COc3ccccc3C1Oc1ccccc1C2 (stereo not given) :
false (0)

Field: outcome | Entry: `O=[N+]([O-])c1cc2[nH]nnc2c2nonc12`
false (0)

GET /call?item= Cc1cn(CC2=NCC(O)CN2)c(=O)[nH]c1=O (stereo not given) returns the recorded outcome of this test.
false (0)

For `CN1Cc2c(nc(-c3ccccc3)c[n+]2[O-])N(C)C1` , what call appears in the results of this test?
false (0)

====

# maps each entry to its GI50
test system: ACHN; assay: NCI tumour cell line growth inhibition, 48 h
Activity calls are given as the source filed them. No stated cut-off is given here; in the data, active = GI50 up to about 1.1 µM and inactive = higher. Peptide text beside a SMILES is read from it. * marks the point of attachment. Trt = c1ccc(C(c2ccccc2)(c2ccccc2)*)cc1; Cbz = O=C(OCc1ccccc1)*

{"Compound": "COc1ccc2c(c1)[n+]([O-])c(-c1c(Cl)cccc1Cl)c(N)[n+]2[O-]", "Target": "ACHN", "GI50": "62.4 µM (inactive)"}
{"Compound": "CN(C)c1nc(N(C)C)nc(N(C)CN(C)c2ccc(Cl)cc2)n1", "Target": "ACHN", "GI50": "> 100 µM (inactive)"}
{"Compound": "Cc1ccc2c(c1)C(=O)C1(C2)Cc2cccc(C)c2C1=O (stereo not given)", "Target": "ACHN", "GI50": "> 100 µM (inactive)"}
{"Compound": "COC(=O)C(CO)NC(=O)C(CSC(c1ccccc1)(c1ccccc1)c1ccccc1)NC(=O)OCc1ccccc1 (stereo not given) (Cbz-Cys(Trt)-Ser-OMe; configuration not given here)", "Target": "ACHN", "GI50": "21.2 µM (inactive)"}
{"Compound": "COC(=O)C1Cc2cc3c(cc2C1=O)CCC3 (stereo not given)", "Target": "ACHN", "GI50": "> 100 µM (inactive)"}

Check the records and state GI50 for CCCCCCCCC/C=C1/CC(CO)(COC(=O)CC(C(C)C)C(C)C)OC1=O (stereo not given)
3.17 µM (inactive)

Specify reported GI50 for the compound shown: `N#Cc1ccccc1NC(=O)C(=O)c1c(O)c2ccccc2oc1=O`
> 100 µM (inactive)

Indicate its recorded GI50; the compound in question is OC1(c2ccccc2)CSC2=Nc3ccccc3C3CCN1N23 (stereo not given)
19 µM (inactive)

Supply measured GI50 of NC(=O)N/N=C1/CCC(O)CC1CC(=O)O (stereo not given) in your reply.
> 100 µM (inactive)

Please give the documented GI50 of `CC1=C(C(=O)N(C(C)C)C(C)C)CC(C(=O)N(C(C)C)C(C)C)=C(C)N1`
> 100 µM (inactive)

src = ChEMBL document CHEMBL1201862
